molecular target: EphA4 ligand-binding domain (human, amino acids 22-203) (human, UniProt P54764 22-203, biotin on primary amines (EZ link NHS biotin) in the AlphaScreen assays only); assay: SPR; kd1
Sequence (P54764 22-203): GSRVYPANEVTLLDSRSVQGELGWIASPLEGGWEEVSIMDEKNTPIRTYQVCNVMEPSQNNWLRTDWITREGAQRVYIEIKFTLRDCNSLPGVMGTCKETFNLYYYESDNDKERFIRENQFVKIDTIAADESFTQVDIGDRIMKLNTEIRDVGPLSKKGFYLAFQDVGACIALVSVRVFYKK
koff values by entry
Write the number in s⁻¹ without appending the unit.

Consider the worked cases shown below.
Nb 22 (VHH, biotin on primary amines (EZ link NHS biotin) in the Eph receptor selectivity AlphaScreen only) VHH: QVQLQESGGGPVRAGESLRLSCTASGRAFSTYTMGWFRQAPGKERELVAVITPGGNTNYADSVKGRFTISRDDAKNTVYLQMNSLKPVDTAVYYCHVVLAVVGTGNEYDVWGQGTQVTVSS = 0.0143
Nb 53 (VHH, biotin on primary amines (EZ link NHS biotin) in the Eph receptor selectivity AlphaScreen only) VHH: QVQLQESGGGVVQAGGSLRLSCAASGRAFSSYAMGWFRQAPGTKREMIAAVTRAGTTNYANPVKGRFTISRDDAKNMVYLQMNNLKPEDSAVYYCNAISPLWDEYDFWGPGTQVTVSS = 0.0594
Nb 50 (VHH, biotin on primary amines (EZ link NHS biotin) in the Eph receptor selectivity AlphaScreen only) VHH: QVQLQESGGGLVQAGGSLRLSCAASGRTFNSYAEAWFRQAPGKEREMIAAVTKAGTTNYANPVKGRFTISRDDAKNMVYLQMNNLKPEDSAVYYCNAISPLWDEYDFWGPGTQVTVSS = 0.192

Query :: Recall and state the measured koff for Nb 39 (VHH, biotin on primary amines (EZ link NHS biotin) in the Eph receptor selectivity AlphaScreen only) VHH: QVQLQESGGGLVQPGGSLKLSCAASGFTFSTYAMSWVRQAPGKGLEWVSRINSGGGYTWHADSVKGRFTISRDNARNTVYLQMNNLKPEDTAVYYCTNLNTGWRPEYWGQGTQVTVSS .
Result :: 0.0607
